biological target: T1, human PCSK9 (proprotein convertase subtilisin kexin type 9) (human, UniProt Q8NBP7 31-692); experiment: PCSK9:EGFA FRET, competitor EGFA peptide
T1 construct: immobilized directly (ProteOn), biotinylated (Octet) or in solution, according to the assay; also called hPCSK9; PCSK9-AF647 (labelled form)
pEC50: −log10 of the molar value.
Listed next: entries and their corresponding pEC50.

- binder: "2382F02 (designed binder) MGVSDVPRDLEVVAATPTSLLISWDAPAGGGYGYYRITYGETGGNSPVQEFTVPVSKGTATISGLKPGVDYTITVYAVEFDFPGSGYYHRPISINYRTEIDKPSQHHHHHH"
  pEC50: 8.59
- binder: "2381H03 (designed binder) MGVSDVPRDLEVVAATPTSLLISWEPFSRLPGGGEYYRITYGETGGNSPLQQFTVPGSKGTATISGLKPGVDYTITVYAVEYPYAHSGYFHRPISINYRTEIDKPSQHHHHHH"
  pEC50: 8.47
- binder: "1922G04(R25E) (designed binder) MGVSDVPRDLEVVAATPTSLLISWEPPSHAYGYYRITYGETGGNSPVQEFTVPIGKGTATISGLKPGVDYTITVYAVEYPWKGSGYYHRPISINYRTGSGSHHHHHH"
  pEC50: 8.46
- binder: "2381H06 (designed binder) MGVSDVPRDLEVVAATPTSLLISWGDVRTNEARQGYYRITYGETGGNSPLQGFTVPGSKGTATISGLKPGVDYTITVYAVEYTYEHSGYYHRPISINYRTEIDKPSQHHHHHH"
  pEC50: 8.30

meta.source: patent US20120094909A1
